Data credit: ChEMBL document CHEMBL3886974

Target chain: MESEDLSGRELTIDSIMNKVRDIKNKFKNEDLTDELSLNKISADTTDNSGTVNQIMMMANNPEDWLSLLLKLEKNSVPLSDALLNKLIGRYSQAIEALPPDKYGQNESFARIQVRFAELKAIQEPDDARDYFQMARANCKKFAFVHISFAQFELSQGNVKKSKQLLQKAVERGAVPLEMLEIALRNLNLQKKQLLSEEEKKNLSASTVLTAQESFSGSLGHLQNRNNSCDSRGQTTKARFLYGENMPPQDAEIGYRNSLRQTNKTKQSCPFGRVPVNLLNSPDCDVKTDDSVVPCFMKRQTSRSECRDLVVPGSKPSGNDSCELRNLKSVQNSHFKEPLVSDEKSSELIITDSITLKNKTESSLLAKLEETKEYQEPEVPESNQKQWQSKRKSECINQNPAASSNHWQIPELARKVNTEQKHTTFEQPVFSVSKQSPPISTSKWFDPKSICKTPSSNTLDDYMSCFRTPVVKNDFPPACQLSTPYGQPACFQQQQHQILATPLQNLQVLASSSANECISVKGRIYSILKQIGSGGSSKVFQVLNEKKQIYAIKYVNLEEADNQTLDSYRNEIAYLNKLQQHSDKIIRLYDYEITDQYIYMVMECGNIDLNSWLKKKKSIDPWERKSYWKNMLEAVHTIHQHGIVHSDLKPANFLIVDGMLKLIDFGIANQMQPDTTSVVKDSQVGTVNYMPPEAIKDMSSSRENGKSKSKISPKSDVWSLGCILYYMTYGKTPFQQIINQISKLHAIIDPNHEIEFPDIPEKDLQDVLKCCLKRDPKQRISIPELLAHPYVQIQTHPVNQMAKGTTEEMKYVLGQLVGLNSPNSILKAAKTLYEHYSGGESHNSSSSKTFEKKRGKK
READOUT_LABEL: pIC50
// scale note: pIC50 = -log10(conc_M); give the bare number

# input Any idea what its pIC50 is? The molecule is `CSc1nc(C#CCO)cn2c(-c3ccc(-c4cnc(C5CC5)[nH]4)cc3)cnc12`
# output 6.82
